Protocol Description: Acute toxicity was determined in mice upon peroral administration
Assay type: organism-based
Setup Conditions: mouse, in vivo, po
For each record, write down the corresponding LD50.

Example entries begin here.
[[record]]
compound = "COc1ccccc1OCC1SCCN1C(=O)C(C)(C)C(=O)O (stereo not drawn)"
metric = "LD50"
observed_value = "> 1000 mg/kg"

[[record]]
compound = "COc1ccccc1OCC1N(C(=O)CS(C)(=O)=O)CC[S+]1[O-] (stereo not drawn)"
metric = "LD50"
observed_value = "> 1000 mg/kg"

[[record]]
compound = "COc1ccccc1OCC1SCCN1C(=O)C(C)(C)C (stereo not drawn)"
metric = "LD50"
observed_value = "> 1000 mg/kg"

[[record]]
compound = "CSCC(=O)N1CCSC1COc1ccccc1O (stereo not drawn)"
metric = "LD50"
observed_value = "> 1000 mg/kg"

[[record]]
compound = "COc1ccccc1OCC1N(C(=O)C[S+](C)[O-])CC[S+]1[O-] (stereo not drawn)"
metric = "LD50"
observed_value = "> 1000 mg/kg"

[[record]]
compound = "Oc1ccccc1OCC1NCCS1 (stereo not drawn)"
metric = "LD50"
observed_value = "> 1000 mg/kg"

[[record]]
compound = "COc1ccccc1OCC1NCCS1 (stereo not drawn)"
metric = "LD50"
observed_value = "> 1000 mg/kg"


Field: next compound
Query: Quick one: give measured LD50 for CCOC(=O)CC(=O)N1CCSC1COc1ccccc1OC (stereo not drawn)
Response: > 1000 mg/kg
